- experimental target: purified HLA DRB1*0401 (Homo sapiens, UniProt P01903+P01911, A100K/A169T/F76Y/I96L/K127E/L162R/M171V/N62H/P40V/Q125Y/R42H/S133A/S149N/S66Y/V115G/V209L/W38E)
- Construct: purified from EBV transformed homozygous cell lines or single MHC allele transfected 721.221, C1R, or fibroblast lines; made in house
- test protocol: HLA-DR radioligand binding inhibition assay, DRB1*0401
- applied conditions: IC50 nM purified HLA DRB1 *0401, purified HLA DRB1*0401
- Experimental: Instead, wells of an opaque white 96-well Optiplate (Packard) are coated with 3 μg (100 μl@ 30 μg/ml) of HLA-specific antibody (Ab) that “capture” complexes of radiolabeled MHC and unlabeled peptide transferred from the molecular binding assay plate in 100 μl of 0.05% NP40/PBS. […] Captured complexes are then measured on a microplate scintillation and luminescence counter (TopCount NXTTM; Packard). […]
# IC50 listing for each entry below
Give just the numeric value; nM need not be written.

compound	reported value
CC[C@H](C)[C@H](NC(=O)[C@@H](NC(=O)[C@@H]1CCCN1C(=O)[C@H](C)N)[C@@H](C)O)C(=O)N[C@@H](CO)C(=O)N1CCC[C@H]1C(=O)N[C@@H](CC(C)C)C(=O)N[C@@H](CC(N)=O)C(=O)N[C@H](C(=O)N[C@@H](CO)C(=O)N[C@@H](Cc1ccc(O)cc1)C(=O)N[C@@H](CCCNC(=N)N)C(=O)N[C@@H](CO)C(=O)NCC(=O)N[C@@H](CCC(=O)O)C(=O)O)[C@@H](C)O [Peptide 9019.0121]	295
CC[C@H](C)[C@H](NC(=O)CNC(=O)[C@@H](NC(=O)[C@@H](NC(=O)[C@H](C)NC(=O)[C@H](CO)NC(=O)[C@@H](NC(=O)[C@@H](NC(=O)[C@H](CO)NC(=O)[C@@H](NC(=O)[C@H](CC(C)C)NC(=O)[C@@H]1CCCN1C(=O)[C@H](CO)NC(=O)[C@H](C)N)[C@@H](C)O)[C@@H](C)CC)[C@@H](C)CC)C(C)C)C(C)C)C(=O)N[C@@H](CC(C)C)C(=O)O [Peptide 9019.0066]	29

Q: I'd like to know its IC50. The compound in question is CC[C@H](C)[C@H](N)C(=O)N[C@@H](CCC(=O)O)C(=O)N[C@@H](C)C(=O)N[C@@H](CC(C)C)C(=O)N[C@@H](CC(C)C)C(=O)N[C@@H](CCC(=O)O)C(=O)N[C@@H](CO)C(=O)N[C@@H](CO)C(=O)N[C@@H](CC(C)C)C(=O)N[C@@H](CCCNC(=N)N)C(=O)N[C@@H](CCC(N)=O)C(=O)N[C@@H](C)C(=O)N[C@@H](CCC(N)=O)C(=O)N[C@@H](CCC(N)=O)C(=O)N[C@@H](CC(N)=O)C(=O)O [Peptide 9019.0172]
Result: 18

###

Measured IC50, listed per entry.
- experimental target: purified HLA DRB1*0301 (Homo sapiens, UniProt P01903+P01911, A100K/A102G/A103R/A169T/F55Y/I96L/K41T/L162R/M171V/P40S/Q125H/Q178H/Q39Y/R42S/S66N/T106N/T262R/W38E/Y61H)
- Construct: purified from EBV transformed homozygous cell lines or single MHC allele transfected 721.221, C1R, or fibroblast lines; made in house
- test protocol: HLA-DR radioligand binding inhibition assay, DRB1*0301
- applied conditions: IC50 nM purified HLA DRB1 *0301, purified HLA DRB1*0301
Answer with a number only, understood to be in nM.

The following compounds have reported results that may help.
compound	unit of measurement	IC50
CC[C@H](C)[C@H](NC(=O)[C@H](CS)NC(=O)[C@H](Cc1c[nH]c2ccccc12)NC(=O)[C@@H](N)CCCNC(=N)N)C(=O)N1CCC[C@H]1C(=O)N[C@@H](Cc1c[nH]c2ccccc12)C(=O)N[C@@H](CCC(N)=O)C(=O)N[C@@H](CCCNC(=N)N)C(=O)N[C@@H](CC(C)C)C(=O)N[C@@H](CC(C)C)C(=O)N[C@@H](CC(C)C)C(=O)N[C@H](C(=O)N[C@@H](C)C(=O)N[C@@H](CO)C(=O)N[C@@H](CC(C)C)C(=O)O)[C@@H](C)O [Peptide 9019.0104]	nM	7860
CC(C)C[C@H](NC(=O)[C@H](C)NC(=O)[C@H](Cc1ccc(O)cc1)NC(=O)[C@H](CC(N)=O)NC(=O)[C@H](CC(=O)O)NC(=O)[C@H](CCC(=O)O)NC(=O)[C@H](Cc1ccccc1)NC(=O)[C@H](CC(C)C)NC(=O)[C@H](CCC(N)=O)NC(=O)[C@@H](NC(=O)CN)[C@@H](C)O)C(=O)N[C@@H](C)C(=O)N[C@H](C(=O)N[C@@H](CC(C)C)C(=O)N[C@@H](CC(=O)O)C(=O)O)C(C)C [Peptide 9019.0001]	nM	29
CSCC[C@H](NC(=O)[C@H](CC(N)=O)NC(=O)[C@H](CCC(N)=O)NC(=O)[C@H](CCC(N)=O)NC(=O)[C@H](C)NC(=O)[C@H](CCC(N)=O)NC(=O)[C@H](CCCNC(=N)N)NC(=O)[C@H](CC(C)C)NC(=O)[C@H](CO)NC(=O)[C@H](CO)NC(=O)[C@H](CCC(=O)O)NC(=O)[C@H](CC(C)C)NC(=O)[C@H](CC(C)C)NC(=O)[C@H](C)NC(=O)[C@@H](N)CCC(=O)O)C(=O)O [Peptide 9019.0014]	nM	151

Could you now look at the following compound, please?
Q: Using the record for CC[C@H](C)[C@H](NC(=O)[C@H](CO)NC(=O)[C@@H]1CCCN1C(=O)[C@H](CCCCN)NC(=O)[C@@H]1CCCN1C(=O)[C@H](CC(C)C)NC(=O)[C@H](CCC(=O)O)NC(=O)[C@H](C)NC(=O)[C@H](CO)NC(=O)[C@@H](NC(=O)[C@@H](NC(=O)[C@@H](NC(=O)[C@@H](N)[C@@H](C)O)[C@@H](C)CC)[C@@H](C)O)C(C)C)C(=O)N[C@@H](CO)C(=O)N[C@@H](CO)C(=O)O [Peptide 9019.0132] , report its IC50.
Result: 74
